- tgt: mouse Tas2r105 (Mus musculus)
- Construct: expressed in transfected cells; host or cells: HEK293T-Gα16gust44
- Sequence (Q9JKT4 whole entry): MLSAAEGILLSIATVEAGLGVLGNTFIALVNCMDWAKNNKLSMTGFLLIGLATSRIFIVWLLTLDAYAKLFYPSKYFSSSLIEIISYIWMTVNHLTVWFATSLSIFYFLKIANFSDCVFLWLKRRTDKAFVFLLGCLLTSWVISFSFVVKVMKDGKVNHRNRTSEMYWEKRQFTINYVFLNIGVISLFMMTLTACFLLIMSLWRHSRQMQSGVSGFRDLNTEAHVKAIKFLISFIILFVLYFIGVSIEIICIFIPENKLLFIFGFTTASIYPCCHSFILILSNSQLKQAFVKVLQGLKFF
- testSummary: Calcium imaging assay (FLIPR), HEK293T-Gα16gust44 cells transfected with mouse Tas2r105
- Assay type: cell-based
- runConditions: Time 106.781 s
Catalogue of compounds with associated RLU

| smilesRepresentation | RLU |
| --- | --- |
| C[C@H](CCC(=O)NCC(=O)O)[C@H]1CC[C@H]2[C@@H]3[C@H](O)C[C@@H]4C[C@H](O)CC[C@]4(C)[C@H]3C[C@H](O)[C@]12C | 500.977 RLU |
| C[C@H](CCC(=O)O)[C@H]1CC[C@H]2[C@@H]3[C@H](O)C[C@@H]4C[C@H](O)CC[C@]4(C)[C@H]3C[C@H](O)[C@]12C | 551.409 RLU |
| C[C@H](CCC(=O)O)[C@H]1CC[C@H]2[C@@H]3CC[C@@H]4C[C@H](O)CC[C@]4(C)[C@H]3C[C@H](O)[C@]12C | 108.305 RLU |
| C[C@H](CCC(=O)O)[C@H]1CC[C@H]2[C@@H]3CC[C@@H]4C[C@H](O)CC[C@]4(C)[C@H]3CC[C@]12C | 225.971 RLU |

###

- tgt: human TAS2R4 (Homo sapiens, UniProt Q9NYW5)
- Construct: expressed in transfected cells; host or cells: HEK293T-Gα16gust44
- Sequence (Q9NYW5 1-299): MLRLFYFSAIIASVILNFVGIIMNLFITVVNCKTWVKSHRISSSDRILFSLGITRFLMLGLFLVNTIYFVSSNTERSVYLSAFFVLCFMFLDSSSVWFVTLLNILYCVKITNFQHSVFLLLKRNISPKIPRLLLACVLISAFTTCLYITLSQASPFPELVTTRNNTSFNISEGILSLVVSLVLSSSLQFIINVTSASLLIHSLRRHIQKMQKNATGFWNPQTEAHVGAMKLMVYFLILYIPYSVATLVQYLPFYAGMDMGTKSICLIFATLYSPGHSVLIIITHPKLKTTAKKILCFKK
- testSummary: Calcium imaging assay (FLIPR), HEK293T-Gα16gust44 cells transfected with human TAS2R4; also: test concentration or dose not given here
- Assay type: cell-based
- runConditions: Time (s) 227.547
reportedEndpoint: RLU, fluorescence trace (RLU)

| smilesRepresentation | unitsOfMeasure | recordedResult |
| --- | --- | --- |
| C[C@H](CCC(=O)NCCS(=O)(=O)O)[C@H]1CC[C@H]2[C@@H]3CC[C@@H]4C[C@H](O)CC[C@]4(C)[C@H]3CC[C@]12C | RLU | 99.7214 |
| C[C@H](CCC(=O)NCCS(=O)(=O)O)[C@H]1CC[C@H]2[C@@H]3[C@H](O)C[C@@H]4C[C@H](O)CC[C@]4(C)[C@H]3C[C@H](O)[C@]12C | RLU | 290.972 |
| C[C@H](CCC(=O)O)[C@H]1CC[C@H]2[C@@H]3CC[C@@H]4C[C@H](O)CC[C@]4(C)[C@H]3C[C@H](O)[C@]12C | RLU | 345.298 |

###

- tgt: mouse Tas2r108 (Mus musculus, UniProt Q9JKT3)
- Construct: expressed in transfected cells; host or cells: HEK293T-Gα16gust44
- Sequence (Q9JKT3 whole entry): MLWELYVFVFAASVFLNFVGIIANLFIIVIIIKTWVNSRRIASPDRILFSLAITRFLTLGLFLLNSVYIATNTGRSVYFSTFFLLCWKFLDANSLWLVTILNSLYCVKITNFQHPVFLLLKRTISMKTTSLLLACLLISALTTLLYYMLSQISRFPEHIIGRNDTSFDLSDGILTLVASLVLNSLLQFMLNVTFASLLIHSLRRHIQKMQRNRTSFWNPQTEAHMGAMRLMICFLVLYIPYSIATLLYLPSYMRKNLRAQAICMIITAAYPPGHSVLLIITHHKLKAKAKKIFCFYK
- testSummary: Calcium imaging assay (FLIPR), HEK293T-Gα16gust44 cells transfected with mouse Tas2r108
- Assay type: cell-based
- runConditions: Time 155.562 s
- Experimental: This set of bile acids was chosen because of their commercial availability in high purities, their diversity within the class of bile acids and their previous detection and quantitation in human blood. Stock solutions were prepared in DMSO. […] Measured data were negative control corrected by subtracting the signal of the mock-transfected cells and exported to Microsoft Excel using the FLIPR software ScreenWorks 4.2. […]

| smilesRepresentation | unitsOfMeasure | RLU |
| --- | --- | --- |
| C[C@H](CCC(=O)O)[C@H]1CC[C@H]2[C@@H]3[C@H](O)C[C@@H]4C[C@H](O)CC[C@]4(C)[C@H]3C[C@H](O)[C@]12C | RLU | 210.935 |
| C[C@H](CCC(=O)NCC(=O)O)[C@H]1CC[C@H]2[C@@H]3[C@H](O)C[C@@H]4C[C@H](O)CC[C@]4(C)[C@H]3C[C@H](O)[C@]12C | RLU | 183.974 |
| C[C@H](CCC(=O)NCCS(=O)(=O)O)[C@H]1CC[C@H]2[C@@H]3[C@H](O)C[C@@H]4C[C@H](O)CC[C@]4(C)[C@H]3C[C@H](O)[C@]12C | RLU | 217.366 |
| C[C@H](CCC(=O)O)[C@H]1CC[C@H]2[C@@H]3CC[C@@H]4C[C@H](O)CC[C@]4(C)[C@H]3C[C@H](O)[C@]12C | RLU | 499.263 |
